The values you see were collected from ChEMBL document CHEMBL2412997.

target: Histamine H3 receptor (Homo sapiens); assay: Binding affinity to histamine H3 receptor (unknown origin)
Sequence (Q9Y5N1 whole entry): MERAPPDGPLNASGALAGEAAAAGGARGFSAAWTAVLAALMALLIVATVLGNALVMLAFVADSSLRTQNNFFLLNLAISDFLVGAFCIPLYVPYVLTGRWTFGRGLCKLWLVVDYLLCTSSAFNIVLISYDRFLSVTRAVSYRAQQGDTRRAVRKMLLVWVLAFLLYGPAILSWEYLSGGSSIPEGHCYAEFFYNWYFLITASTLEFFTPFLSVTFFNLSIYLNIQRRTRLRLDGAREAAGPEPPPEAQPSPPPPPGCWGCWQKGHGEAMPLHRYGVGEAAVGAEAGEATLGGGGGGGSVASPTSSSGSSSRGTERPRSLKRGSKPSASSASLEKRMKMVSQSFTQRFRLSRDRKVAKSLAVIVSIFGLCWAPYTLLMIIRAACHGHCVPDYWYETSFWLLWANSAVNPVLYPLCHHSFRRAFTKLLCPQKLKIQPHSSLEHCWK
Reported values of Ki for individual entries
observable: Ki (nM)

| itemSmiles | measValue |
| --- | --- |
| c1cc(-c2ccc(CN3CCCCC3)cc2)ccc1CN1CCCCC1 | 0.3 |
| N#CC(C#N)=C1N(CCCCN2CCCCC2)CCN1CCCCN1CCCCC1 | 56 |
| CCN1CCCc2cccc(OCCCN3CCCCC3)c21 | 1000 |
| N#CC(C#N)=C1N(CCCCN2CCCCC2)CCN1CCCN1CCCCC1 | 61 |
| CCN1CCCc2c(OCCCN3CCCCC3)cccc21 | 1000 |
| c1cc(-c2ccc(CCN3CCCCC3)cc2)ccc1CCN1CCCCC1 | 1.2 |
